Molecular target: 15-PGDH in A549 cells (Homo sapiens)
Construct: endogenous in cells
Sequence (P15428 1-266): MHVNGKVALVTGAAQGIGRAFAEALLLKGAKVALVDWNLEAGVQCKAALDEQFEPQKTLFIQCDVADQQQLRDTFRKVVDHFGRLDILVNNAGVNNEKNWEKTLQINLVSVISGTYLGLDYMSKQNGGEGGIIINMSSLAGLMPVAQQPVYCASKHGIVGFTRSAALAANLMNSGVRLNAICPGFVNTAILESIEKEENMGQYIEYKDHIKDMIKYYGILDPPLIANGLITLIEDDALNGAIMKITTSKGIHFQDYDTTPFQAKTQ
Test: A549 cellular 15-PGDH assay (PGE2 accumulation, HTRF)
Conditions: interleukin-stimulated, inhibitor 24 hrs, PGE2 by competitive HTRF, read-out: A549 Cell Assay IC50
ENDPOINT: IC50 (nM)

A = Cc1c([C@@H](CO)C2CC(F)(F)C2)sc2nc(-c3cnc4nn(C)cc4c3)ccc12 (single isomer, unassigned) [Compound B93R]
B = Cn1cc2cc(-c3ccc4cc([C@@H](O)C56CC(C5)C6)sc4n3)cnc2n1 (single isomer, unassigned) [Compound B87S]
C = C[C@@H](O)c1cc2c(-c3ccnn3C)cc(-c3cnc4nn(C)cc4c3)nc2s1 (single isomer, unassigned)
Q: Sort the entries above numerically by IC50, high end first. Return value: ordered labels per request.
Result: A, C, B

* * *

molecular target: 15-PGDH in A549 cells (Homo sapiens, UniProt P15428); construct: endogenous in cells; experiment: A549 cellular 15-PGDH assay (PGE2 accumulation, HTRF); conditions: interleukin-stimulated, inhibitor 24 hrs, PGE2 by competitive HTRF, read-out: A549 Cell Assay IC50
ENDPOINT: IC50 (nM)

• CCCC(O)c1cc2ccc(-c3cnc4nn(C)cc4c3)nc2s1 (stereo not shown) = 0.597

1 = Cc1nc2ccc(-c3ccc4cc([C@H](O)C5CC(F)(F)C5)sc4n3)cc2o1 (single isomer, unassigned) [Compound B51R]
2 = COC[C@H]1C[C@](O)(c2cc3ccc(-c4cnc5nn(C)cc5c4)nc3s2)C1 (single isomer, unassigned) [Compound C58C]
3 = Cn1cc2cc(-c3ccc4cc([C@]5(O)C[C@H](F)C5)sc4n3)cnc2n1 [Compound C40T]
Q: Arrange these compounds by their IC50, starting with the largest number. Return value: ordered labels per request.
Result: 3, 2, 1
(3: 3.36 nM, 2: 0.519 nM, 1: 0.357 nM)

* * *

biological target: 15-PGDH in A549 cells (Homo sapiens); construct: endogenous in cells; test: A549 cellular 15-PGDH assay (PGE2 accumulation, HTRF); settings: interleukin-stimulated, inhibitor 24 hrs, PGE2 by competitive HTRF, read-out: A549 Cell Assay IC50
ENDPOINT: IC50 (nM)

Example cases with answers are listed next.
- Cn1cc2cc(-c3ccc4cc(C(O)C5CCC(F)(F)CC5)sc4n3)cnc2n1 (stereo not shown): 0.553
- Cn1cc2cc(-c3cnc4cc([C@H](O)C5CC(F)(F)C5)sc4n3)cnc2n1 [Compound B92R]: 0.409

I = Cn1cc2cc(-c3ccc4cc([C@H](O)[C@@H]5CCOC5)sc4n3)cnc2n1 (single isomer, unassigned) [Compound B19RR]
II = Cn1cc2cc(-c3ccc4cc([C@@H](O)[C@H]5CC5(F)F)sc4n3)cnc2n1 (single isomer, unassigned) [Compound B85SR]
III = Cc1c([C@@H](O)C2CCOCC2)sc2nc(-c3cnc4c(c3)nnn4C)ccc12 (single isomer, unassigned) [Compound B89S]
IV = CCC(O)c1cc2c(C3CC3)cc(-c3cnc4nn(C)cc4c3)nc2s1 (stereo not shown)
V = Cn1ccc2cc(-c3ccc4cc([C@@H](O)C5CC(F)(F)C5)sc4n3)ccc2c1=O (single isomer, unassigned) [Compound B50S]
Q: Hey, quick one: sort these by IC50, low to high? Return value: ordered labels per request.
Result: I, II, IV, V, III
(I: 0.381 nM, II: 1.5 nM, IV: 4.19 nM, V: 7.99 nM, III: 375 nM)

* * *

target: 15-PGDH in A549 cells (Homo sapiens); construct: endogenous in cells; assay: A549 cellular 15-PGDH assay (PGE2 accumulation, HTRF); settings: interleukin-stimulated, inhibitor 24 hrs, PGE2 by competitive HTRF, read-out: A549 Cell Assay IC50
ENDPOINT: IC50 (nM)

* Cn1cc2cc(-c3cnc4cc([C@@H](O)C5CC(F)(F)C5)sc4c3)cnc2n1 (single isomer, unassigned) [Compound B78S] | 57.1
* Cn1cc2cc(-c3ncc4cc([C@]5(O)C[C@@H](C6CC6)C5)sc4n3)cnc2n1 [Compound C99C] | 0.666

P = Cc1c([C@H](O)C2CC(F)(F)C2)sc2nc(-c3cnc4nn(C)cc4c3)ccc12 (single isomer, unassigned) [Compound B83R]
Q = Cc1cn2cc(-c3ccc4cc([C@]5(O)C[C@@H](C(F)F)C5)sc4n3)cnc2n1 [Compound C97C]
Q: Hey, between P and Q which has a smaller measured IC50? Indicate your choice by writing its label.
Result: P

* * *

target: 15-PGDH in A549 cells (Homo sapiens); construct: endogenous in cells; assay: A549 cellular 15-PGDH assay (PGE2 accumulation, HTRF); conditions: interleukin-stimulated, inhibitor 24 hrs, PGE2 by competitive HTRF, read-out: A549 Cell Assay IC50
pIC50: −log10 of the molar value.
ENDPOINT: pIC50

Example cases with answers are listed next.
• Cn1cc2cc(-c3cnc4sc([C@H](O)C5CC(F)(F)C5)cc4c3)cnc2n1 (single isomer, unassigned) [Compound B77R] = 8.89
• Cn1nnc2cc(-c3ccc4nc([C@]5(O)C[C@H](OC(F)(F)F)C5)sc4n3)cnc21 [Compound C112C] = 8.50

1 = Cn1nnc2cc(-c3ccc4cc([C@]5(O)C[C@@H](OC(F)(F)F)C5)sc4n3)cnc21 [Compound C101C]
2 = Cc1cn2cc(-c3ccc4cc([C@H](O)C5CC(F)(F)C5)sc4n3)ccc2n1 (single isomer, unassigned) [Compound B48R]
Q: Hey, between 1 and 2 which has a smaller measured pIC50? Indicate your choice by writing its label.
Result: 2

* * *

target: human recombinant 15-PGDH (Homo sapiens); assay: Recombinant 15-PGDH enzymatic inhibition assay (PGDH-Lumi, NADH signal); conditions: recombinant 15-PGDH; 15 min pre-incubation, 60 min reaction with PGE2 and NAD+, NADH signal
ENDPOINT: IC50 (nM)

Example cases with answers are listed next.
• Cn1cc2cc(-c3ccc4cc(CO)sc4n3)cnc2n1 [Compound A1] = 159
• Cn1cc2cc(-c3ncc4cc([C@]5(O)C[C@@H](OC(F)(F)F)C5)sc4n3)cnc2n1 [Compound C100C] = 0.3

P = Cn1cnc(-c2ccc3cc([C@@H](O)C4CC(F)(F)C4)sc3n2)cc1=O (single isomer, unassigned) [Compound B49S]
Q = CCC(O)c1cc2c(C3CC3)cc(-c3cnc4nn(C)cc4c3)nc2s1 (stereo not drawn) [Compound B13]
R = Cn1cc2cc(-c3ncc4cc([C@]5(O)C[C@]6(CC6(F)F)C5)sc4n3)cnc2n1 (single isomer, unassigned) [Compound C114C]
Q: Hey, quick one: sort these by IC50, low to high? Return value: ordered labels per request.
Result: R, Q, P
(R: 0.323 nM, Q: 0.901 nM, P: 9.3 nM)

* * *

Target: human recombinant 15-PGDH (Homo sapiens, UniProt P15428)
Sequence (P15428 1-266): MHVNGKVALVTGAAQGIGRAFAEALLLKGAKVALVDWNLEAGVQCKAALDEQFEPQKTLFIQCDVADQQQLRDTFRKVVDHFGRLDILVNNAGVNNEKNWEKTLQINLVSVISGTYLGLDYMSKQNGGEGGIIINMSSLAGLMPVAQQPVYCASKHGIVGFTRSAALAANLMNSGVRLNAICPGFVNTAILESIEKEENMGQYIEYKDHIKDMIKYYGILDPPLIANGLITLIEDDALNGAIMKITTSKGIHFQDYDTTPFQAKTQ
Experiment: Recombinant 15-PGDH enzymatic inhibition assay (PGDH-Lumi, NADH signal)
Conditions: recombinant 15-PGDH; 15 min pre-incubation, 60 min reaction with PGE2 and NAD+, NADH signal
ENDPOINT: IC50 (nM)

1 = C[C@@H](O)c1cc2c(-c3ccnn3C)cc(-c3cnc4nn(C)cc4c3)nc2s1 (single isomer, unassigned)
2 = COCC(C)(O)c1cc2ccc(-c3cnc4nn(C)cc4c3)nc2s1 (stereo not drawn)
3 = O[C@H](c1cc2ccc(-c3cncnc3)nc2s1)C1CC(F)(F)C1 (single isomer, unassigned) [Compound B57S]
4 = CO[C@]1(C)C[C@@](O)(c2cc3ccc(-c4cnc5nn(C)cc5c4)nc3s2)C1 [Compound C59C]
5 = Cn1cc2cc(-c3cnc4sc([C@H](O)C5CC(F)(F)C5)cc4c3)cnc2n1 (single isomer, unassigned) [Compound B77R]
Q: Sort the entries above numerically by IC50, high end first. Return value: ordered labels per request.
Result: 2, 3, 5, 1, 4
